These entries and their values trace back to PubChem BioAssay.

Listing: composite z-score of selected molecules
Test Target: Albumin (Bos taurus)
Method Notes: compounds binding labelled BSA control protein – biochemical, small-molecule microarray, Alexa647 label, 635/667 nm fluorescence, artefact control for SMM control protein annotation, profiling panel (AID 1118);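 note: score merges 667 nm emission intensity and signal-to-noise per printed compound spot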
Test Parameters: BSA-A647 binding, fluorescence 635 nm, higher = more signal
Answer using only a numeral; do not append any unit.

Illustrative cases are given below, each with its answer.
| Molecule | Test Target | composite z-score |
| --- | --- | --- |
| O=C1O[C@@H](c2ccccc2)[C@@H](c2ccccc2)N2[C@@H](c3ccc(O)cc3)[C@]3(C(=O)Nc4ccc(C#CC5=CCCCC5)cc43)[C@@H](C(=O)Nc3nc4ccccc4s3)[C@H]12 | Albumin (Bos taurus) | 0.787 |
| C=CCC(OC(C)=O)[C@@H]1[C@@H](N(Cc2cccc3ccccc23)C(=O)c2ccc(C)cc2)c2cc(OCCCO)ccc2N1C(=O)c1ccc2ccccc2c1 (some centres undefined) | Albumin (Bos taurus) | -0.0007 |
| NC(=O)NCC#Cc1ccc2c(c1)[C@]1(C(=O)N2)[C@H](c2ccc(O)cc2)N2[C@H](c3ccccc3)[C@H](c3ccccc3)OC(=O)[C@H]2[C@@H]1C(=O)NC[C@H](O)c1ccccc1 | Albumin (Bos taurus) | 0.233 |
| C=C(COC)C(=O)CC[C@H](OC(=O)c1ccccc1-c1ccccc1C(=O)O)c1ccc(OCCO)cc1 | Albumin (Bos taurus) | 0.369 |

# input Item: `Cc1ccc(S[C@]2(C(=O)O)CC(=O)N(Cc3ccccc3C(F)(F)F)[C@@H]2c2ccc(CO)cc2)cc1` Test system: Albumin (Bos taurus) Read-out: composite z-score Value: ?
# output -0.283

# input Item: `CN(C)C(=O)[C@]1(Cc2ccccc2N=[N+]=[N-])N=C(c2ccc(OCCCO)cc2)O[C@@H]1c1ccccc1CN=[N+]=[N-]` Test system: Albumin (Bos taurus) Read-out: composite z-score Value: ?
# output 0.828

# input Item: `COC(=O)C(CC#Cc1ccc2c(c1)[C@]1(C(=O)N2)[C@H](C(=O)N2CCc3cc(OC)c(OC)cc3C2)[C@H]2C(=O)O[C@H](c3ccccc3)[C@H](c3ccccc3)N2[C@@H]1c1ccc(OCCO)cc1)C(=O)OC` Test system: Albumin (Bos taurus) Read-out: composite z-score Value: ?
# output 0.438

# input Item: `O=[N+]([O-])c1ccc(C[n+]2ccc(-c3ccc(CO)cc3)cc2)o1` Test system: Albumin (Bos taurus) Read-out: composite z-score Value: ?
# output 0.904

# input Item: Cc1ccccc1C(O)C1C=CC2C(=O)N(Cc3ccccc3)C(=O)C2N1n1cnnc1 (centres undefined) Test system: Albumin (Bos taurus) Read-out: composite z-score Value: ?
# output 0.756

# input Item: `C[C@H]1ON(c2ccccc2)[C@@H](c2ccccc2)[C@@H]1C(=O)N1C(=O)OC[C@@H]1c1ccccc1` Test system: Albumin (Bos taurus) Read-out: composite z-score Value: ?
# output 0.0537

# input Item: `[N-]=[N+]=NCc1ccccc1C[C@]1(C(=O)NCCN2CCOCC2)COC(c2ccc(OCCCO)cc2)=N1` Test system: Albumin (Bos taurus) Read-out: composite z-score Value: ?
# output 0.854

# input Item: `COCCOC(=O)N1C(=O)[C@@]2(c3ccccc31)[C@H](c1ccc(OCCO)cc1)N1[C@H](c3ccccc3)[C@H](c3ccccc3)OC(=O)[C@H]1[C@@H]2C(=O)NC[C@H](O)c1ccccc1` Test system: Albumin (Bos taurus) Read-out: composite z-score Value: ?
# output 0.128

# input Item: `COC(=O)[C@@]1(Cc2ccc(OC)cc2)[C@H]2c3cc(C(=O)N4CCCC4)n(CCc4ccc(O)c(OC)c4)c3C[C@H]2CN1C(=O)c1ccccc1` Test system: Albumin (Bos taurus) Read-out: composite z-score Value: ?
# output 0.952

# input Item: C=CCC(OC(C)=O)[C@@H]1[C@@H](N(Cc2cccc3ccccc23)C(=O)Cc2ccc(F)cc2)c2cc(OCCCO)ccc2N1C(=O)Cc1ccc(OC)cc1 (some centres undefined) Test system: Albumin (Bos taurus) Read-out: composite z-score Value: ?
# output 0.006
